TEST_SYSTEM: NAD-dependent protein deacetylase sirtuin-2 (Homo sapiens) (UniProt Q8IXJ6)
ASSAY: Inhibition of recombinant GST-tagged SIRT2 at 200 uM by Fluor de Lys fluorescence assay
Answer 0.0 if inhibition is under 30%, and 1.0 if it is 30% or more.

Known results for compounds:
INSERT INTO results (molecule, group) VALUES
  ('CC(C)(NC(=O)/C=C/c1cccc(O)c1)C(=O)NCCc1c[nH]c2ccccc12', 1.0),
  ('O=C(/C=C/c1ccccc1)NCC(=O)NCCc1c[nH]c2ccc(OCc3ccccc3)cc12', 1.0),
  ('C[C@H](NC(=O)CCc1ccccc1)C(=O)NCCc1c[nH]c2ccc(OCc3ccccc3)cc12', 1.0),
  ('O=C(/C=C/c1ccccc1)NCC(=O)NCCc1c[nH]c2ccccc12', 0.0),
  ('COc1ccccc1/C=C/C(=O)NC(C)(C)C(=O)NCCc1c[nH]c2ccccc12', 1.0);

Q: Decide: inhibition of CC(C)(NC(=O)CCc1ccccc1)C(=O)NCCc1c[nH]c2ccccc12 >= 30%?
A: 0.0

Q: Decide: inhibition of COc1cccc(/C=C/C(=O)NC(C)(C)C(=O)NCCc2c[nH]c3ccccc23)c1 >= 30%?
A: 1.0

Q: Decide: inhibition of C[C@H](NC(=O)/C=C/c1ccccc1)C(=O)NCCc1c[nH]c2ccccc12 >= 30%?
A: 1.0

---

TEST_SYSTEM: UniProtKB Q8IXJ6
Sequence (whole entry): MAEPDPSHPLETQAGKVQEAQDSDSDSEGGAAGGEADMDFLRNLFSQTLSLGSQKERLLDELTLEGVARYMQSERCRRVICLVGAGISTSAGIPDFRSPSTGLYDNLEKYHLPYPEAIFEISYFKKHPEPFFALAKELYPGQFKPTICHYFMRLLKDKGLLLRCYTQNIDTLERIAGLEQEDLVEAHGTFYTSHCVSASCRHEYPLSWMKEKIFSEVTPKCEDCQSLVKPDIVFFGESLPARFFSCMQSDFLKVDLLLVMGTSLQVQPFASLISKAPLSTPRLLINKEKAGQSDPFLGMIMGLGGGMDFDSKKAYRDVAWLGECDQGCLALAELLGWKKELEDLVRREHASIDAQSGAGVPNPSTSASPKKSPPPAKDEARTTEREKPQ
ASSAY: Inhibition of recombinant GST-tagged SIRT2 at 200 uM by Fluor de Lys fluorescence assay
Documented inhibition across a set of compounds
Your answer is read as %, so omit the unit and give the number.

Example entries and their recorded answers appear below.
INSERT INTO results (molecule, test_system, assay_endpoint, unit_descriptor, assay_value) VALUES
  ('C[C@H](NC(=O)/C=C/c1ccccc1)C(=O)NCCc1c[nH]c2ccc(OCc3ccccc3)cc12', 'UniProtKB Q8IXJ6', 'inhibition', '%', 43.7),
  ('CC(C)(NC(=O)/C=C/c1ccccc1)C(=O)NCCc1c[nH]c2ccccc12', 'UniProtKB Q8IXJ6', 'inhibition', '%', 49.5),
  ('O=C(/C=C/c1ccccc1)NCCc1c[nH]c2ccccc12', 'UniProtKB Q8IXJ6', 'inhibition', '%', 58);

Sample O=C(NCCc1c[nH]c2ccccc12)[C@@H]1CCCN1C(=O)/C=C/c1ccccc1 ; inhibition observed: 36.6

Sample O=C(/C=C/c1ccc(O)cc1)NCCc1c[nH]c2ccccc12 ; inhibition observed: 44.3

Sample CC(C)(NC(=O)/C=C/c1ccc(O)cc1)C(=O)NCCc1cccnc1 ; inhibition observed: 2
